Origin of the recorded values: ChEMBL document CHEMBL1140357

- TARGET OR TEST SYSTEM: Phosphodiesterase 1 (Homo sapiens, UniProt P54750+Q01064+Q14123)
- TEST PROTOCOL: Inhibitory concentration against Phosphodiesterase type 1
- Assay type: protein assay
IC50 values by entry
PARAMETER MEASURED: IC50

{"COMPOUND": "O=C(Nc1nc(C(Cc2ccccc2)C(=O)O)cs1)c1cccc(COc2ccccc2)n1 (stereo not given)", "MEASURED VALUE": "> 10 µM"}
{"COMPOUND": "CCCCC(C(=O)O)c1csc(NC(=O)c2cccc(COc3ccccc3)n2)n1 (stereo not given)", "MEASURED VALUE": "> 10 µM"}
{"COMPOUND": "O=C(Cc1csc(NC(=O)c2ccccc2F)n1)NO", "MEASURED VALUE": "> 10 µM"}
{"COMPOUND": "Cc1cc(C)cc(C(=O)Nc2nc(CC(=O)NO)cs2)c1", "MEASURED VALUE": "> 10 µM"}
{"COMPOUND": "O=C(Nc1nc(C2(C(=O)O)CC2)cs1)c1cccc(COc2ccccc2)n1", "MEASURED VALUE": "> 10 µM"}
{"COMPOUND": "O=C(O)CCC(CCC(=O)O)(C(=O)O)c1csc(NC(=O)c2cccc(COc3ccccc3)n2)n1", "MEASURED VALUE": "> 10 µM"}
{"COMPOUND": "O=C(Cc1csc(NC(=O)COc2ccc(Cl)cc2)n1)NO", "MEASURED VALUE": "1.81 µM"}
{"COMPOUND": "O=C(Cc1csc(NC(=O)C2C=CN(c3ccccc3)c3ccccc32)n1)NO (stereo not given)", "MEASURED VALUE": "0.38 µM"}
{"COMPOUND": "O=C(Cc1csc(NC(=O)c2cnc3ccccc3n2)n1)NO", "MEASURED VALUE": "> 10 µM"}
{"COMPOUND": "O=C(Cc1csc(NC(=O)c2ccc3ccccc3n2)n1)NO", "MEASURED VALUE": "8 µM"}
{"COMPOUND": "CC(C)C(C(=O)NO)c1csc(NC(=O)c2cccc(COc3ccccc3)n2)n1 (stereo not given)", "MEASURED VALUE": "3.9 µM"}
{"COMPOUND": "O=C(Cc1csc(NC(=O)c2cccc(COc3ccccc3)n2)n1)NO", "MEASURED VALUE": "0.92 µM"}
{"COMPOUND": "CCC(C(=O)Nc1nc(CC(=O)NO)cs1)c1ccccc1 (stereo not given)", "MEASURED VALUE": "> 10 µM"}
{"COMPOUND": "O=C(Cc1csc(NC(=O)c2ccc(Cl)cc2Cl)n1)NO", "MEASURED VALUE": "> 10 µM"}
{"COMPOUND": "CCCCCCCCCCCC(=O)Nc1nc(CC(=O)NO)cs1", "MEASURED VALUE": "> 10 µM"}
{"COMPOUND": "CCCCCCC(C(=O)O)c1csc(NC(=O)c2cccc(COc3ccccc3)n2)n1 (stereo not given)", "MEASURED VALUE": "> 10 µM"}
{"COMPOUND": "O=C(O)Cc1cccc(NC(=O)c2cccc(COc3ccccc3)n2)c1", "MEASURED VALUE": "> 10 µM"}
{"COMPOUND": "O=C(NO)C(=O)c1csc(NC(=O)c2cccc(COc3ccccc3)n2)n1", "MEASURED VALUE": "> 10 µM"}
{"COMPOUND": "O=C(Cc1csc(NC(=O)c2cccc(C(=O)c3ccccc3)c2)n1)NO", "MEASURED VALUE": "1.72 µM"}
{"COMPOUND": "Cc1nc(NC(=O)c2cccc(COc3ccccc3)n2)sc1C(=O)O", "MEASURED VALUE": "4.48 µM"}
